Test system: Escherichia coli TOP10;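 further: peptides expressed intracellularly from a pBAD plasmid library in pooled LB shake-flask culture, induced with 0.3% L-arabinose, DNA abundance read by NGS, three biological replicates, DESeq2 with apeglm shrinkage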
Assay: shrunken log2 fold change of peptide-encoding DNA abundance (4.5 h post-induction vs induction); higher = less antimicrobial activity (less host growth inhibition)
Conditions: time post-induction: 4.5 h; library: site-saturation at positions 5, 18, 19, 20
Classification field: 1 = shrunken log2 fold change at or over -0.06; 0 = shrunken log2 fold change under -0.06.

Qu. # bool: shrunken log2 fold change of "RRIRERPPRLPRPRPRPGRNPRP" >= -0.06
Ans. 0

Qu. # bool: shrunken log2 fold change of "RRIRSRPPRLPRPRPRPYSLPRP" >= -0.06
Ans. 0

Qu. # bool: shrunken log2 fold change of "RRIRQRPPRLPRPRPRPHDDPRP" >= -0.06
Ans. 1

Qu. # bool: shrunken log2 fold change of "RRIRGRPPRLPRPRPRPWSGPRP" >= -0.06
Ans. 1

Qu. # bool: shrunken log2 fold change of "RRIRNRPPRLPRPRPRPFNDPRP" >= -0.06
Ans. 1

Qu. # bool: shrunken log2 fold change of "RRIRYRPPRLPRPRPRPNTFPRP" >= -0.06
Ans. 0

Qu. # bool: shrunken log2 fold change of "RRIRGRPPRLPRPRPRPPFMPRP" >= -0.06
Ans. 1

Qu. # bool: shrunken log2 fold change of "RRIRTRPPRLPRPRPRPLQHPRP" >= -0.06
Ans. 0

Qu. # bool: shrunken log2 fold change of "RRIRMRPPRLPRPRPRPQNDPRP" >= -0.06
Ans. 0

Qu. # bool: shrunken log2 fold change of "RRIRSRPPRLPRPRPRPHSGPRP" >= -0.06
Ans. 1

Qu. # bool: shrunken log2 fold change of "RRIRARPPRLPRPRPRPRTNPRP" >= -0.06
Ans. 1

Qu. # bool: shrunken log2 fold change of "RRIRSRPPRLPRPRPRPFHYPRP" >= -0.06
Ans. 0

Qu. # bool: shrunken log2 fold change of "RRIRIRPPRLPRPRPRPIPCPRP" >= -0.06
Ans. 1

Qu. # bool: shrunken log2 fold change of "RRIRSRPPRLPRPRPRPFHQPRP" >= -0.06
Ans. 0

Qu. # bool: shrunken log2 fold change of "RRIRLRPPRLPRPRPRPETKPRP" >= -0.06
Ans. 1

Qu. # bool: shrunken log2 fold change of "RRIRTRPPRLPRPRPRPFDEPRP" >= -0.06
Ans. 0

Qu. # bool: shrunken log2 fold change of "RRIRMRPPRLPRPRPRPGYHPRP" >= -0.06
Ans. 1

Qu. # bool: shrunken log2 fold change of "RRIRGRPPRLPRPRPRPHIMPRP" >= -0.06
Ans. 0

Qu. # bool: shrunken log2 fold change of "RRIRQRPPRLPRPRPRPEMEPRP" >= -0.06
Ans. 1

Qu. # bool: shrunken log2 fold change of "RRIRSRPPRLPRPRPRPCIDPRP" >= -0.06
Ans. 0

Qu. # bool: shrunken log2 fold change of "RRIRSRPPRLPRPRPRPDRWPRP" >= -0.06
Ans. 1

Qu. # bool: shrunken log2 fold change of "RRIRWRPPRLPRPRPRPGSNPRP" >= -0.06
Ans. 1

Qu. # bool: shrunken log2 fold change of "RRIRSRPPRLPRPRPRPKNQPRP" >= -0.06
Ans. 0

Qu. # bool: shrunken log2 fold change of "RRIRTRPPRLPRPRPRPQQQPRP" >= -0.06
Ans. 1

Qu. # bool: shrunken log2 fold change of "RRIRRRPPRLPRPRPRPECHPRP" >= -0.06
Ans. 1

Qu. # bool: shrunken log2 fold change of "RRIRWRPPRLPRPRPRPYMAPRP" >= -0.06
Ans. 0

Qu. # bool: shrunken log2 fold change of "RRIRDRPPRLPRPRPRPLWTPRP" >= -0.06
Ans. 1

Qu. # bool: shrunken log2 fold change of "RRIRFRPPRLPRPRPRPPWSPRP" >= -0.06
Ans. 1

Qu. # bool: shrunken log2 fold change of "RRIRFRPPRLPRPRPRPMTGPRP" >= -0.06
Ans. 0

Qu. # bool: shrunken log2 fold change of "RRIRKRPPRLPRPRPRPKEHPRP" >= -0.06
Ans. 1

Qu. # bool: shrunken log2 fold change of "RRIRCRPPRLPRPRPRPMDGPRP" >= -0.06
Ans. 1

Qu. # bool: shrunken log2 fold change of "RRIRRRPPRLPRPRPRPNDLPRP" >= -0.06
Ans. 0

Qu. # bool: shrunken log2 fold change of "RRIRCRPPRLPRPRPRPRMGPRP" >= -0.06
Ans. 1

Qu. # bool: shrunken log2 fold change of "RRIRPRPPRLPRPRPRPKGKPRP" >= -0.06
Ans. 0

Qu. # bool: shrunken log2 fold change of "RRIRMRPPRLPRPRPRPYIRPRP" >= -0.06
Ans. 0

Qu. # bool: shrunken log2 fold change of "RRIRNRPPRLPRPRPRPHIHPRP" >= -0.06
Ans. 0

Qu. # bool: shrunken log2 fold change of "RRIRCRPPRLPRPRPRPLSNPRP" >= -0.06
Ans. 1

Qu. # bool: shrunken log2 fold change of "RRIRTRPPRLPRPRPRPLWCPRP" >= -0.06
Ans. 0

Qu. # bool: shrunken log2 fold change of "RRIRIRPPRLPRPRPRPWCCPRP" >= -0.06
Ans. 0

Qu. # bool: shrunken log2 fold change of "RRIRSRPPRLPRPRPRPNLWPRP" >= -0.06
Ans. 0

Qu. # bool: shrunken log2 fold change of "RRIRLRPPRLPRPRPRPLHPPRP" >= -0.06
Ans. 1

Qu. # bool: shrunken log2 fold change of "RRIRLRPPRLPRPRPRPLPSPRP" >= -0.06
Ans. 1

Qu. # bool: shrunken log2 fold change of "RRIRFRPPRLPRPRPRPVFLPRP" >= -0.06
Ans. 0

Qu. # bool: shrunken log2 fold change of "RRIRRRPPRLPRPRPRPYARPRP" >= -0.06
Ans. 1

Qu. # bool: shrunken log2 fold change of "RRIRQRPPRLPRPRPRPCWSPRP" >= -0.06
Ans. 0

Qu. # bool: shrunken log2 fold change of "RRIRYRPPRLPRPRPRPAPLPRP" >= -0.06
Ans. 1

Qu. # bool: shrunken log2 fold change of "RRIRKRPPRLPRPRPRPRRMPRP" >= -0.06
Ans. 1

Qu. # bool: shrunken log2 fold change of "RRIRKRPPRLPRPRPRPIYNPRP" >= -0.06
Ans. 1

Qu. # bool: shrunken log2 fold change of "RRIRPRPPRLPRPRPRPLNKPRP" >= -0.06
Ans. 0

Qu. # bool: shrunken log2 fold change of "RRIRGRPPRLPRPRPRPEKTPRP" >= -0.06
Ans. 1

Qu. # bool: shrunken log2 fold change of "RRIRERPPRLPRPRPRPTDWPRP" >= -0.06
Ans. 0
